Target: T1, HLA-DR DRB1*0101 (human)
T1 chain 1: not shown
T1 chain 2: not shown
Experiment: radioligand inhibition, purified HLA-DR
Conditions: remark: other sources report otherwise
Measured parameter: pIC50
The read-out pIC50 is expressed as -log10 of concentration in moles per litre.

Name the recorded pIC50 for LLTFWNPPTTAKLTI [CEA.24 peptide 9019.0105] .
7.16

Next:
Which value of pIC50 has been reported for RPRFRELVSEFSRMA [Peptide 9019.0095] in the records?
7.59

Recorded pIC50 for VCGIQNSVSANRSDP [CEA.570 peptide 9012.0135] , please?
7.36
